Entry source: patent EP0549857A1

Kindly state MIC for each of the entries shown.
System: Escherichia coli DC 2
Test: In vitro anti-bacterial activity test (MIC, two-fold agar dilution)
Assay type: cell-based
Conditions: DC2, Mueller-Hinton agar, 10⁷ CFU/mℓ, 37°C, 18 hours, read-out: MIC
Supply the numeric figure in µg/mL, leaving out any unit text.

QUERY: // returns reported MIC for input NC1CCC2=C1CN(c1c(F)cc3c(=O)c(C(=O)O)cn(C4CC4)c3c1F)C2 (stereo not shown)
RESULT: 0.098

QUERY: Fill blank: measured MIC of the compound CNC1CCC2=C1CN(c1c(F)cc3c(=O)c(C(=O)O)cn4c3c1OC[C@@H]4C)C2 (stereo partly shown) is ____.
RESULT: 0.391

QUERY: Requested read-out: MIC. Entry: CNC1CCC2=C1CN(c1c(F)c(N)c3c(=O)c(C(=O)O)cn(C4CC4)c3c1F)C2 (stereo not shown)
RESULT: 0.049

QUERY: Report MIC for CNC1CCC2=C1CN(c1c(F)cc3c(=O)c(C(=O)O)cn(C4CC4)c3c1F)C2 (stereo not shown) please.
RESULT: 0.098

QUERY: Fill in: MIC of NC1CCC2=C1CN(c1c(F)cc3c(=O)c(C(=O)O)cn(C4CC4)c3c1Cl)C2 (stereo not shown) is ___
RESULT: 0.049

QUERY: I am curious: what MIC value has been reported for CC1COc2c(N3CCN(C)CC3)c(F)cc3c(=O)c(C(=O)O)cn1c23 (stereo not shown) [Ofloxacin, reference compound] ?
RESULT: 0.391

QUERY: Fill blank: measured MIC of the compound CNC1CCC2=C1CN(c1c(F)cc3c(=O)c(C(=O)O)cn(C4CC4)c3c1Cl)C2 (stereo not shown) is ____.
RESULT: 0.025

QUERY: Data request, read-out MIC, for CNC1CCC2=C1CN(c1nc3c(cc1F)c(=O)c(C(=O)O)cn3C1CC1)C2 (stereo not shown)
RESULT: 0.391

QUERY: Find the recorded MIC belonging to O=C(O)c1cn(C2CC2)c2cc(N3CCNCC3)c(F)cc2c1=O [Ciprofloxacin, reference compound] and report it.
RESULT: 0.195

QUERY: Requested field: MIC. Item: NC1CCCC2=C1CN(c1c(F)cc3c(=O)c(C(=O)O)cn(C4CC4)c3c1F)C2 (stereo not shown)
RESULT: 0.195
